Recorded IC50 (read off the curve) values for a group of binders are listed next.
SUBJECT_OF_TEST: T1, hVEGF-A (8-109) (human, UniProt P15692 214-315)
T1 sequence (looked up): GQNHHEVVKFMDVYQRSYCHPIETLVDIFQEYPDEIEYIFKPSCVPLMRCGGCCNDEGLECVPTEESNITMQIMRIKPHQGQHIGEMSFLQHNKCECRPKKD
TEST_METHOD_NOTES: phage competition ELISA (clone on phage; the concentration varied on the axis is that of hVEGF (8-109))

Sample answers from the record:
| BINDER | READOUT_VALUE |
| --- | --- |
| GCNIMLPFWGCGQSFECLAGCICQYYQSCGLS (designed binder) [9.54.1-42] | ~0.08 nM |
| GCNIMLPFWGCKQDFDCLAGCICQYYQSCGFH (designed binder) [9.54-28] | ~0.1 nM |

Q: Please look up its IC50 (read off the curve): GCNIMLPFWGCGQSFECLAGCICQYYQSCGTR (designed binder) [9.54.1-36]
Result: ~0.06 nM

Q: Need IC50 (read off the curve) of GCNIMLPFWGCGQSFECLAGCICQYYQSCGVH (designed binder) [9.54.1-90] , thanks.
Result: ~0.08 nM

Q: May I ask what IC50 (read off the curve) has been recorded for GCNIMLPFWGCKQDSDCLAGCVCQYYQSCG (designed binder, also called EM54) [VEGF_CKP9.54] ?
Result: ~4 nM

Q: Requested field: IC50 (read off the curve). Item: GCNIMLPFWGCGQSFECLAGCVCQYYQSCG (designed binder) [VEGF_CKP9.54.1]
Result: ~0.3 nM
